pIC50: −log10 of the molar value.
Hi there, I'd appreciate the recorded pIC50 for every entry that follows.

Summary: Cc1nc(NC(=O)N2CC[C@H](O)[C@H]2C(N)=S)sc1-c1ccnc(C(C)(C)C(F)(F)F)c1 [Compound 14] , PI3K-δ (Homo sapiens, UniProt O00329), pIC50 = 6.30 to 6.70

Summary: Cc1nc(NC(=O)N2C[C@@H](F)C[C@H]2C(N)=S)sc1-c1ccnc(C(C)(C)C(F)(F)F)c1 [Compound 3] , PI3K-δ (Homo sapiens, UniProt O00329), pIC50 = < 6.00

Summary: Cc1nc(NC(=O)N2CCC[C@@]2(C)C(N)=S)sc1-c1ccnc(C(C)(C)C(F)(F)F)c1 [Compound 6] , PI3K-δ (Homo sapiens, UniProt O00329), pIC50 = < 6.00

Summary: Cc1nc(NC(=O)N2CCC[C@H]2C(N)=S)sc1-c1ccnc(C(C)(C)C(F)(F)F)c1 [Compound 5] , PI3K-δ (Homo sapiens, UniProt O00329), pIC50 = 6.30 to 6.70

Summary: Cc1nc(NC(=O)N2[C@@H](C)CC[C@H]2C(N)=S)sc1-c1ccnc(C(C)(C)C(F)(F)F)c1 [Compound 10] , PI3K-δ (Homo sapiens, UniProt O00329), pIC50 = < 6.00

Summary: CO[C@H]1C[C@@H](C(N)=S)N(C(=O)Nc2nc(C)c(-c3ccnc(C(C)(C)C(F)(F)F)c3)s2)C1 [Compound 8] , PI3K-δ (Homo sapiens, UniProt O00329), pIC50 = 6.00 to 6.30

Summary: Cc1nc(NC(=O)N2CC(F)(F)C[C@H]2C(N)=S)sc1-c1ccnc(C(C)(C)C(F)(F)F)c1 [Compound 1] , PI3K-δ (Homo sapiens, UniProt O00329), pIC50 = 6.30 to 6.70

Summary: Cc1nc(NC(=O)N2C[C@H](F)C[C@H]2C(N)=S)sc1-c1ccnc(C(C)(C)C(F)(F)F)c1 [Compound 2] , PI3K-δ (Homo sapiens, UniProt O00329), pIC50 = 6.30 to 6.70

---

# target: PI3K-α (PI3K p110a/p65a (h)) (Homo sapiens)
# assayName: PI3K-inhibitory activity, enzymatic HTRF assay, PI3K-α
# assaySetup: 10 μM PIP2, 30 minutes at room temperature, read-out: Class IC50 PI3K-α
pIC50: −log10 of the molar value.
Hi there, I'd appreciate the recorded pIC50 for every entry that follows.

# compound Cc1nc(NC(=O)N2CCC[C@H]2C(N)=S)sc1-c1ccnc(C(C)(C)C(F)(F)F)c1 ; its pIC50 = ≥ 7.30

# compound Cc1nc(NC(=O)N2[C@H](C)CC[C@H]2C(N)=S)sc1-c1ccnc(C(C)(C)C(F)(F)F)c1 ; its pIC50 = 6.30 to 6.70

# compound Cc1nc(NC(=O)N2CCC[C@@]2(C)C(N)=S)sc1-c1ccnc(C(C)(C)C(F)(F)F)c1 ; its pIC50 = < 6.00

# compound CO[C@H]1C[C@@H](C(N)=S)N(C(=O)Nc2nc(C)c(-c3ccnc(C(C)(C)C(F)(F)F)c3)s2)C1 ; its pIC50 = 6.70 to 7.30

# compound Cc1nc(NC(=O)N2CC[C@H](O)[C@H]2C(N)=S)sc1-c1ccnc(C(C)(C)C(F)(F)F)c1 ; its pIC50 = ≥ 7.30

# compound Cc1nc(NC(=O)N2C[C@H](F)C[C@H]2C(N)=S)sc1-c1ccnc(C(C)(C)C(F)(F)F)c1 ; its pIC50 = 6.70 to 7.30

---

# target: PI3K-α (PI3K p110a/p65a (h)) (Homo sapiens, UniProt P42336)
# Sequence (P42336 whole entry): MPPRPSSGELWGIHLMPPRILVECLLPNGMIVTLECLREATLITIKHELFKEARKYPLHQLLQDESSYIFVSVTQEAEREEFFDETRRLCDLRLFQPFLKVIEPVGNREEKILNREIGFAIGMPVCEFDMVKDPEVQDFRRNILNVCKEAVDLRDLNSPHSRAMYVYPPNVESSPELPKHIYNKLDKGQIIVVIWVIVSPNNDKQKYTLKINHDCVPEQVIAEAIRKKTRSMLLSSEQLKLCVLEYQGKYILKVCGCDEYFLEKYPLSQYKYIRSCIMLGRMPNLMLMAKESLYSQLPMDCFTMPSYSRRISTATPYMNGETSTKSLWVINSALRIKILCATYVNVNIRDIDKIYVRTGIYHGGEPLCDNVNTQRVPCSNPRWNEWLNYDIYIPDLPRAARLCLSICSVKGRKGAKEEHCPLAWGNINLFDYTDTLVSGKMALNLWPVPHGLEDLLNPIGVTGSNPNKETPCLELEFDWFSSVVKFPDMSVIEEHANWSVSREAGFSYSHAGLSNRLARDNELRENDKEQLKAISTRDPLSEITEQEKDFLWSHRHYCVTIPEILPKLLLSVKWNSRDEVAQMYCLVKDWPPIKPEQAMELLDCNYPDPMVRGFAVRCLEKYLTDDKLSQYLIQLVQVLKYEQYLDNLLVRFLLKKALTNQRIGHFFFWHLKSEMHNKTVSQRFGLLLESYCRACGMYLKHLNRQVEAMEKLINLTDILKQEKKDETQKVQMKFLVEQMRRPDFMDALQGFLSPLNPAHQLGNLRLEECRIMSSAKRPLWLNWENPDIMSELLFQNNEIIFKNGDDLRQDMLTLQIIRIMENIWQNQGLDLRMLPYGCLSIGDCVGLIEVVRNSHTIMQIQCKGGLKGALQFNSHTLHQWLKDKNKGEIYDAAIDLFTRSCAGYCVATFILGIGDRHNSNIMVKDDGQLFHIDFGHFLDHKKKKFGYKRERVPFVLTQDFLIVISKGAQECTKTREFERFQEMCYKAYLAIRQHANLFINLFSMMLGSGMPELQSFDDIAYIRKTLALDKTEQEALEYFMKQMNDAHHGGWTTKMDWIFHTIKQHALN
# assayName: PI3K-inhibitory activity, enzymatic HTRF assay, PI3K-α
# Format: biochemical
# assaySetup: 10 μM PIP2, 30 minutes at room temperature, read-out: Class IC50 PI3K-α
propertyMeasured: IC50

# compound Cc1nc(NC(=O)N2[C@@H](C)CC[C@H]2C(N)=S)sc1-c1ccnc(C(C)(C)C(F)(F)F)c1 [Compound 10] ; its IC50 = > 1000 nM

# compound Cc1nc(NC(=O)N2CC(F)(F)C[C@H]2C(N)=S)sc1-c1ccnc(C(C)(C)C(F)(F)F)c1 [Compound 1] ; its IC50 = 200 to 500 nM

# compound Cc1nc(NC(=O)N2C[C@@H](C(F)(F)F)C[C@H]2C(N)=S)sc1-c1ccnc(C(C)(C)C(F)(F)F)c1 [Compound 12] ; its IC50 = 500 to 1000 nM

# compound CO[C@@H]1C[C@@H](C(N)=S)N(C(=O)Nc2nc(C)c(-c3ccnc(C(C)(C)C(F)(F)F)c3)s2)C1 [Compound 7] ; its IC50 = 50 to 200 nM

# compound Cc1nc(NC(=O)N2CC3(C[C@H]2C(N)=S)CC3(F)F)sc1-c1ccnc(C(C)(C)C(F)(F)F)c1 (stereo partly shown) [Compound 4] ; its IC50 = > 1000 nM

# compound Cc1nc(NC(=O)N2C[C@@H](F)C[C@H]2C(N)=S)sc1-c1ccnc(C(C)(C)C(F)(F)F)c1 [Compound 3] ; its IC50 = 50 to 200 nM

# compound Cc1nc(NC(=O)N2C[C@H](O)C[C@H]2C(N)=S)sc1-c1ccnc(C(C)(C)C(F)(F)F)c1 [Compound 13] ; its IC50 = ≤ 50 nM
